# Target System: TRPM7 (Mus musculus)
# Construct: expressed in transfected cells; host or cells: HEK-293 tSA (HEK-293T) cells, transient transfection with Lipofectamine 2000
# Sequence (Q923J1 whole entry): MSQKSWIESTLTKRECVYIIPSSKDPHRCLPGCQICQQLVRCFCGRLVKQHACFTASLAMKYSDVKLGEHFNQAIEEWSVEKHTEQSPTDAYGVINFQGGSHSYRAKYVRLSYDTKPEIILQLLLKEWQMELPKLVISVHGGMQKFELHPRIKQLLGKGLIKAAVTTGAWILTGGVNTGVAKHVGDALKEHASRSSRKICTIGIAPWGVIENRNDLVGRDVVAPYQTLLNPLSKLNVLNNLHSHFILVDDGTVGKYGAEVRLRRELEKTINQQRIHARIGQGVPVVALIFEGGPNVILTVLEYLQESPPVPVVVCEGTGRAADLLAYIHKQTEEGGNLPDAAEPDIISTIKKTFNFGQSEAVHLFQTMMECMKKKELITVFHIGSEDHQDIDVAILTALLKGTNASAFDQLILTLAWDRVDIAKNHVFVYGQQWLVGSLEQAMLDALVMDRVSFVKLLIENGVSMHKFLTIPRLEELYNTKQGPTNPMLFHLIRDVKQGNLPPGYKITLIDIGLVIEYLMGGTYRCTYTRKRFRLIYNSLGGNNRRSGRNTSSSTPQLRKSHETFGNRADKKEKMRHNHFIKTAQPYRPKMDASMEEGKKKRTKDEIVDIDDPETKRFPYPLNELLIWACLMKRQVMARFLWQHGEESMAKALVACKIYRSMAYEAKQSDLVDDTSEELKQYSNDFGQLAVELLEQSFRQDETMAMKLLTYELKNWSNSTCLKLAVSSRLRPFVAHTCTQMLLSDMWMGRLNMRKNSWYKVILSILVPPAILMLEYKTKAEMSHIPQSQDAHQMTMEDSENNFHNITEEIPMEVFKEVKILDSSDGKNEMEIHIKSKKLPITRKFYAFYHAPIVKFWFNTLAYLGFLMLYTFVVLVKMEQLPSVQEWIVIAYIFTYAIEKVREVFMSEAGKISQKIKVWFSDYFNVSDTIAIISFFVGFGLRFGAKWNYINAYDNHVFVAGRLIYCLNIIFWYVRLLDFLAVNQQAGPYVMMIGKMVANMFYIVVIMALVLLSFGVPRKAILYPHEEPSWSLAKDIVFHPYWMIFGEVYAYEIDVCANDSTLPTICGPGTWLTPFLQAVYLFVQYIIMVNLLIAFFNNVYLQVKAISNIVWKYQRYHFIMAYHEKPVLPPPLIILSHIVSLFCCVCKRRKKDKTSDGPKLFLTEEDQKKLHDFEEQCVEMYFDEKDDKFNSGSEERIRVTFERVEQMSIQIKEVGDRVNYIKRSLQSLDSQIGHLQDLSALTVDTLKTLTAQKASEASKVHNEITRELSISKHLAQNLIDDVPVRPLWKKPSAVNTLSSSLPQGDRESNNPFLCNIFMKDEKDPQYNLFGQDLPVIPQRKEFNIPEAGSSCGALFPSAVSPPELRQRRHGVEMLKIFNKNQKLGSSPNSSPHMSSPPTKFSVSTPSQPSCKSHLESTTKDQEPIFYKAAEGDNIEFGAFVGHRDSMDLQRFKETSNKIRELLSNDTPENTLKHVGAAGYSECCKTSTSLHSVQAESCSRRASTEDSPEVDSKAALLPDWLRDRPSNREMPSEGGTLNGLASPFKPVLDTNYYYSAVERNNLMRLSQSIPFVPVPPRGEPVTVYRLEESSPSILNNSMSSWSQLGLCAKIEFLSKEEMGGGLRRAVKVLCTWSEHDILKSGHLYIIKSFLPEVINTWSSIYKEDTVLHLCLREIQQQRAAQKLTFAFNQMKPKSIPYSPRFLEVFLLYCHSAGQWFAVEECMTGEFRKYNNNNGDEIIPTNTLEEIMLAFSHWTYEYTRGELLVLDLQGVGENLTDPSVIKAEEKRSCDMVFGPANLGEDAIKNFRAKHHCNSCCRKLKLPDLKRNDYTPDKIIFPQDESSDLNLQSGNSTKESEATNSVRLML
# Assay Info: PI uptake cell death assay in TRPM7-expressing HEK-293 cells (type of assay from Example 1)
# Type: cell-based, murine
# Condition Set: Table X
Measure Name: IC50 (µM)
Use µM as the unit, but write only the number.

[
  {
    "Compound": "Fc1ccc2c(c1)CCNC2c1sc2ccccc2c1Cl (stereo not shown)",
    "Unit String": "µM",
    "Experimental Result": 2.54
  },
  {
    "Compound": "Cc1cccc2sc(C3=NCCc4ccc(Cl)cc43)c(Cl)c12",
    "Unit String": "µM",
    "Experimental Result": 4.75
  },
  {
    "Compound": "COc1cc2c(cc1OC)C(c1sc3cc(OC)c(OC)cc3c1Cl)NCC2 (stereo not shown)",
    "Unit String": "µM",
    "Experimental Result": 1.03
  },
  {
    "Compound": "CCCc1c(Cc2ccc(Cl)c(Cl)c2)c(=O)[nH]c2cc(OC)cc(OC)c12",
    "Unit String": "µM",
    "Experimental Result": 4.46
  },
  {
    "Compound": "O=S(=O)(Nc1sc2ccccc2c1Cl)c1ccc(F)cc1",
    "Unit String": "µM",
    "Experimental Result": 2.87
  },
  {
    "Compound": "Cc1ccc(N(Cc2ccccn2)C(=O)c2sc3ccccc3c2Cl)c(C)c1",
    "Unit String": "µM",
    "Experimental Result": 1.71
  }
]

Could you share which IC50 value was measured for COc1ccc(C)c(N(Cc2ccccn2)C(=O)c2sc3ccccc3c2Cl)c1 ? 1.29

Could you share which IC50 value was measured for COc1ccc2c(c1)C(c1sc3ccccc3c1Cl)NCC2 (stereo not shown) ? 1.13

These data points were gathered from patent US9334256B2.
